Target: Muscarinic acetylcholine receptor M2 (Rattus norvegicus)
Sequence (P10980 whole entry): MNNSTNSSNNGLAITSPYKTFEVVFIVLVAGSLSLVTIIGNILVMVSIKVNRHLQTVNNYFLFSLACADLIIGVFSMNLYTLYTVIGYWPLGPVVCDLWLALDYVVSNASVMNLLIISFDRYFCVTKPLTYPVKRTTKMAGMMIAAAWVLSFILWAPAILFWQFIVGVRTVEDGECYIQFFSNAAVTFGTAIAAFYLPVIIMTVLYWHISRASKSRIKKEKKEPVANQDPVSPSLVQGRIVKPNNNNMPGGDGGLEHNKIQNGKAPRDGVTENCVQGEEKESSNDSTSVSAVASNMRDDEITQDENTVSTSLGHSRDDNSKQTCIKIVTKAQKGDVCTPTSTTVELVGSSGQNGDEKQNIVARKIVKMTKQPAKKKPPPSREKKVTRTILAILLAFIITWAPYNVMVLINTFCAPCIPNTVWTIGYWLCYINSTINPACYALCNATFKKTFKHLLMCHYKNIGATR

| compound | op | Ki, nM |
| --- | --- | --- |
| CCc1nn(CCCN2CCN(c3cccc(Cl)c3)CC2)c(=O)n1CCOc1ccccc1 | = | 4570 |
| CC(O)c1nn(CCCN2CCN(c3ccc(Cl)cc3)CC2)c(=O)n1CCOc1ccccc1 (configuration not stated) [NSC_127096] | > | 10000 |
| CN(C)CCC=C1c2ccccc2CCc2ccccc21 | = | 2.6 |
| CNCCCN1c2ccccc2CCc2ccccc21 [Desmethylimipramine] | = | 37 |
| COc1ccc(C(CN(C)C)C2(O)CCCCC2)cc1 (configuration not stated) [NSC_62923] | > | 10000 |
| Fc1ccc([C@@H]2CCNC[C@H]2COc2ccc3c(c2)OCO3)cc1 [PAROXETINE] | = | 42 |
| Clc1cccc(N2CCNCC2)c1 [mCPP] | = | 4700 |
